Source: ChEMBL document CHEMBL1208774

Assignment: determine reported pKi for the given compounds.
# system: High affinity choline transporter 1 (Mus musculus, UniProt Q8BGY9)
# Sequence (Q8BGY9 whole entry): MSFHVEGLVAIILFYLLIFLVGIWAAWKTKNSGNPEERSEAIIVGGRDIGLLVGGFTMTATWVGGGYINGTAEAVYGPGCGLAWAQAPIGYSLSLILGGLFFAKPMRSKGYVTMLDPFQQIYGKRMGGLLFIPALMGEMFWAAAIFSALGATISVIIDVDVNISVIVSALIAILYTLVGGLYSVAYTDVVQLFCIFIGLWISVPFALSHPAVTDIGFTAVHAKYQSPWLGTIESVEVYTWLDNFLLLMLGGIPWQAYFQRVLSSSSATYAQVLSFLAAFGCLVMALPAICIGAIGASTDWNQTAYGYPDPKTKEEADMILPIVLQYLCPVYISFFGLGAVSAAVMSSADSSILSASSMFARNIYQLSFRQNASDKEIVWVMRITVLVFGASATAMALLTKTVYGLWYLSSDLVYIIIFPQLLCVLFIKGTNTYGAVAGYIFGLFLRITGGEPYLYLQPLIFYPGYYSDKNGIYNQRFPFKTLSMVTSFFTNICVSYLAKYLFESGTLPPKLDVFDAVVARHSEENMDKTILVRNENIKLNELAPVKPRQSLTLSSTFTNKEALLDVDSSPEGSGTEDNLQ
# method-notes: Inhibition of [3H]choline uptake at choline transporter 1 in mouse brain synaptosome
Formally, pKi is defined as -log10 of the concentration c, with c in mol/L.

Prompt line: Name the reported pKi value associated with the compound Nc1ccncc1N [AMIFAMPRIDINE]
Response line: 3.09

Prompt line: Do the same for COc1cc(C#CCC[N+]23CCC(CC2)CC3)cc(OC)c1OC please
Response line: 7.05

Prompt line: Do the same for C[N+]12CCC(O)(CC1)CC2 please
Response line: 4.14

Prompt line: Do the same for OCC[N+]12CCC(CC1)CC2 please
Response line: 6.19

Prompt line: Do the same for C1CN2CCC1CC2 please
Response line: 4.40

Prompt line: Do the same for CNCCO please
Response line: 2.42

Prompt line: Do the same for C[N+](C)(C)CCCCO please
Response line: 3.51

Prompt line: Do the same for C[N+](C)(C)CCCO please
Response line: 5.66

Prompt line: Do the same for COc1cc(C#CCC[N+]23CCC(CC2)C3)cc(OC)c1OC please
Response line: 7.30

Prompt line: Do the same for C[N+](C)(C)c1ccccc1 please
Response line: 4.12

Prompt line: Do the same for Nc1ccncc1 [DALFAMPRIDINE] please
Response line: 3.32

Prompt line: Do the same for CN(C)CCCO please
Response line: 3.54

Prompt line: Do the same for CN1CCC[C@H]1c1cccnc1 [NICOTINE] please
Response line: 3.28

Prompt line: Do the same for CC1C(O)C2CC[N+]1(C)CC2 (centres undefined) please
Response line: 3.68

Prompt line: Do the same for CCCCC[N+]1(CCC#Cc2cc(OC)c(OC)c(OC)c2)CCCCC1 please
Response line: 7.70

Prompt line: Do the same for CN [METHYLAMINE] please
Response line: 1.46

Prompt line: Do the same for CCCCCCCC[N+]1(CCC#Cc2cc(OC)c(OC)c(OC)c2)CCCCC1 please
Response line: 6.64

Prompt line: Do the same for C[N+](C)(C)CCO.[Cl-] [CHOLINE CHLORIDE] please
Response line: 6.17

Prompt line: Do the same for CC[N+](CC)(CC)CCC#Cc1cc(OC)c(OC)c(OC)c1 please
Response line: 6.15

Prompt line: Do the same for COC(=O)CC[N+](C)(C)C please
Response line: 3.57

Prompt line: Do the same for C[n+]1cccc(C(N)=O)c1 please
Response line: 3.44

Prompt line: Do the same for COc1cc(C#CCC[N+](C)(C)C)cc(OC)c1OC please
Response line: 5.70

Prompt line: Do the same for CN(C)C [TRIMETHYLAMMONIUM] please
Response line: 3.47

Prompt line: Do the same for CC(=O)OCCC[N+](C)(C)C please
Response line: 3.72

Prompt line: Do the same for CCCCCCCCCCCCCCCC[n+]1ccccc1 please
Response line: 4.49

Prompt line: Do the same for CC[N+](CC)(CC)CC [TETRYLAMMONIUM] please
Response line: 3.58

Prompt line: Do the same for CCCC[N+](CCCC)(CCCC)CCCC [TETRABUTYLAMMONIUM] please
Response line: 2.98

Prompt line: Do the same for C[N+]12CCC(CC1)CC2 please
Response line: 5.33

Prompt line: Do the same for Cc1cc(C)nc(C)c1 please
Response line: 3.97
